Source of measurements: ChEMBL document CHEMBL4387739

System: Trypanosoma cruzi
Experiment: Inhibition of Trypanosoma cruzi glucokinase at 20 uM using D-glucose as substrate after 1 hr in presence of ATP and […] by resazurin dye based G6PDH-diaphorase coupled fluorescence assay relative to control
Measured inhibition by item
The answer is to be given in %; state only the numeric part.

>>> val("Cc1nn(-c2ccccc2)c2c1C(c1ccc(F)cc1)C(C#N)=C(N)O2 (stereo not drawn)")
55
>>> val("O=C1NC(=O)C(=Cc2ccc(O)c(O)c2)C(=O)N1")
79.4
>>> val("OC1(C#CCN2CCCC[C@@H]2c2cccnc2)CCCCCC1")
64
>>> val("O=C(O)C1Nc2c(I)cccc2C2C=CCC12 (stereo not drawn)")
74.2
>>> val("Cc1cc2c(c(O)c1-c1c(C)cc3c(c1O)/C(=C/Nc1ccc(S(=O)(=O)NC(=N)N)cc1)C(=O)C(O)=C3C(C)C)/C(=C/Nc1ccc(S(=O)(=O)NC(=N)N)cc1)C(=O)C(O)=C2C(C)C")
69.2
>>> val("COc1ccc(Br)cc1C1C(C#N)=C(N)Oc2c1c(C)nn2-c1ccccc1 (stereo not drawn)")
72.9
>>> val("N#CCCOCCC#CCN1CCCC[C@@H]1c1cccnc1")
36.7

**Query** Look at this compound and give its reported inhibition. "Cc1cc2c(c(O)c1-c1c(C)cc3c(c1O)/C(=C/Nc1c(O)cc(S(=O)(=O)O)c4ccccc14)C(=O)C(O)=C3C(C)C)/C(=C/Nc1c(O)cc(S(=O)(=O)O)c3ccccc13)C(=O)C(O)=C2C(C)C"
**Result** 57.8
